Data origin, for the record: patent US20250320312A1

Target: T1, Peptide 4: Biotin-AGGGGSGGGGSGGGGSAAA-Tyr-acid (N-terminal biotin; C-terminal acid)
T1 construct: Control peptide without PC
T1 peptide: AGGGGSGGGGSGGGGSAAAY
Experiment: scFv ELISA
Experimental endpoint: OD450 (OD450)
The reply should be a number in OD450, with the unit left off.

Binder	Observed
PcOxP_DB03_D10 (scFv, V domains shown, scFv in periplasmic extract) VH: EVQLLESGGGLVQPGGSLRLSCAASGFTTSDFYMEWVRQAPGKGLEWVAASRNKANGYTTEYADSVKGRFTISRDNSKNTLYLQMNSLRAEDTAVYYCARDYYGSSYWYFDVWGQGTLVTVSS VL: DIVMTQSPDSLAVSLGERATINCTASESLYSSKHKVHYLAWYQQKPGQPPKLLIYGASGRYIGVPDRFSGSGSGTDFTLTISSLQAEDVAVYYCAQFYSYPLTFGGGTKVEIK	0.05

PcOxP_DB03_E03 (scFv, V domains shown, scFv in periplasmic extract) VH: EVQLLESGGGLVQPGGSLRLSCAASGFTESDFYMEWVRQAPGKGLEWVAASRNKANDYTTEYADSVKGRFTISRDNSKNTLYLQMNSLRAEDTAVYYCARDYYGSSYWYFDVWGQGTLVTVSS VL: DIVMTQSPDSLAVSLGERATINCKSSQSLLYSKNNVNYLAWYQQKPGQPPKLLIYGESNRYIGVPDRFSGSGSGTDFTLTISSLQAEDVAVYYCAQFYEYPLTFGGGTKVEIK has a reported OD450 of 0.04

PcOxP_DB02_H04 (scFv, V domains shown, scFv in periplasmic extract) VH: EVQLLESGGGLVQPGGSLRLSCAASGFTFSDEYMEWVRQAPGKGLEWVAASRNKANDYTTEYADSVKGRFTISRDNSKNTLYLQMNSLRAEDTAVYYCARDYYGSSYWYFDVWGQGTLVTVSS VL: DIVMTQSPDSLAVSLGERATINCTASESLYSSKHKVVYLAWYQQKPGQPPKLLIYGASNRYIGVPDRFSGSGSGTDFTLTISSLQAEDVAVYYCAQFYFYPLTFGGGTKVEIK has a reported OD450 of 0.05
